test target: human B-Raf (Homo sapiens)
Construct: Flag; GST; made in house; host or cells: Sf9 insect cells (B-Raf); E. coli (MEK1-GST)
experiment: B-Raf Kinase to MEK1 ELISA
Type: biochemical
run conditions: median; cpd concentrations from 10 μM to 30 nM in half log dilutions; read-out: Median IC50
measured metric: IC50 (nM)

* CCOC(=O)c1cnn2c(-c3cccc(NC(=O)Nc4cc(OC)cc(C(F)(F)F)c4)c3)ccnc12 [Example 77] | 990

A: CCOC(=O)c1cnn2c(-c3ccc(F)c(NC(=O)c4cccc(C(F)(F)F)c4)c3)ccnc12 [Example 89]
B: O=C(Nc1cccc(-c2ccnc3c(-c4ccncc4)cnn23)c1)Nc1cccc(C(F)(F)F)c1 [Example 192]
C: CN(C)CCc1ccc(-c2cnn3c(-c4cccc(NC(=O)c5cccc(C(F)(F)F)c5)c4)ccnc23)cc1 [Example 289]
D: COCCC(=O)Nc1cccc(-c2cnn3c(-c4cccc(NC(=O)c5cccc(C(F)(F)F)c5)c4)ccnc23)c1 [Example 254]
Query: Parameters: sort_field (IC50), sort_dir (desc). // format: requested-order list of labels
Result: A, B, D, C
(A: 2170 nM, B: 1300 nM, D: 90 nM, C: 26 nM)

====

test target: human B-Raf (Homo sapiens)
Construct: Flag; GST; made in house; host or cells: Sf9 insect cells (B-Raf); E. coli (MEK1-GST)
experiment: B-Raf Kinase to MEK1 ELISA
Assay type: biochemical
run conditions: read-out: % Inhib./10 uM
measured metric: inhibition at 10 µM (%)

• CCOC(=O)c1cnn2c(-c3cc(NC(=O)c4cccc(C(F)(F)F)c4)ccc3[N+](=O)[O-])ccnc12 = 81
• O=C1CN(c2cc3nccc(-c4cccc(NC(=O)c5cccc(C(F)(F)F)c5)c4)n3n2)CCN1 = 76
• COc1ccc(C(=O)Nc2cccc(-c3ccnc4cc(N5CCOCC5)nn34)c2)cc1C(F)(F)F = 93
• O=C(Nc1cccc(-c2ccnc3c(-c4ccnc(Cl)c4)cnn23)c1)c1cccc(C(F)(F)F)c1 = 75

====

test target: human B-Raf (Homo sapiens)
Construct: Flag; GST; made in house; host or cells: Sf9 insect cells (B-Raf); E. coli (MEK1-GST)
experiment: B-Raf Kinase to MEK1 ELISA
Format: biochemical
run conditions: read-out: % Inhib./10 uM
measured metric: inhibition at 10 µM (%)

1: O=C(Nc1cccc(-c2ccnc3cc(-c4ccccn4)nn23)c1)c1cccc(C(F)(F)F)c1
2: O=C(Nc1cccc(-c2ccnc3c(-c4cccnc4)cnn23)c1)Nc1cccc(C(F)(F)F)c1
Query: Returns the identifier with the smallest measured inhibition at 10 µM among 1 and 2 . Respond with the label that goes with your answer.
Result: 1
(1: 24%, 2: 85%)

====

test target: human B-Raf (Homo sapiens, UniProt P15056)
Construct: Flag; GST; made in house; host or cells: Sf9 insect cells (B-Raf); E. coli (MEK1-GST)
Sequence (P15056 whole entry): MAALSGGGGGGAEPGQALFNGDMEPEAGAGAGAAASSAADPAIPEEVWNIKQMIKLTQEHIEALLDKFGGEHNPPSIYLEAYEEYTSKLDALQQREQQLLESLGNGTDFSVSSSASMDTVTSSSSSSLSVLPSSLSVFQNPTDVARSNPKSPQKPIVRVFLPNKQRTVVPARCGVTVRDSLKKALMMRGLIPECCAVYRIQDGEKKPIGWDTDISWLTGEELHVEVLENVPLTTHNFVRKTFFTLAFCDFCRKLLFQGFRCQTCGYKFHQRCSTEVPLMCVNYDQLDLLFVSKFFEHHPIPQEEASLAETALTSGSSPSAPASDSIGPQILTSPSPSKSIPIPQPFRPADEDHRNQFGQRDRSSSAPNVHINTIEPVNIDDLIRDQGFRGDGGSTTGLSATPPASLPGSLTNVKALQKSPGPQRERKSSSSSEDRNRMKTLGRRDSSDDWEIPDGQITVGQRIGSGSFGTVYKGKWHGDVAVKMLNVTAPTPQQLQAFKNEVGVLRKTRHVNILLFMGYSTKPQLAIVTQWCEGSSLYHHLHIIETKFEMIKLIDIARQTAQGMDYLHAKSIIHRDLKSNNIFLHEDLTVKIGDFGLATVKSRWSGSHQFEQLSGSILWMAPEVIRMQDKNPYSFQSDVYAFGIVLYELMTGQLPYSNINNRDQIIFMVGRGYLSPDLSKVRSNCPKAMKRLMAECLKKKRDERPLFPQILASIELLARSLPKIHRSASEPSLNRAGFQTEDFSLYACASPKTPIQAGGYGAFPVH
experiment: B-Raf Kinase to MEK1 ELISA
Assay type: biochemical
run conditions: median; cpd concentrations from 10 μM to 30 nM in half log dilutions; read-out: Median IC50
measured metric: IC50

• CCOCOCc1ccc(-c2cc3nccc(-c4cccc(NC(=O)c5cccc(C(F)(F)F)c5)c4)n3n2)cc1 [Example 140] = > 10 µM

Query: Field: IC50 (human B-Raf (Homo sapiens, UniProt P15056)). Entry: O=C(Nc1cccc(-c2ccnc3cc(O)nn23)c1)c1cccc(C(F)(F)F)c1 [Example 250]
Result: > 10 µM

Query: Field: IC50 (human B-Raf (Homo sapiens, UniProt P15056)). Entry: O=C(Nc1cccc(-c2ccnc3cc(-c4ccncc4)nn23)c1)c1ccccc1Cl [Example 145]
Result: > 10 µM

Query: Field: IC50 (human B-Raf (Homo sapiens, UniProt P15056)). Entry: CCOC(=O)c1cnn2c(-c3cccc(NC(=O)c4ccc(Cl)cc4)c3)ccnc12 [Example 6]
Result: > 20 µM

Query: Field: IC50 (human B-Raf (Homo sapiens, UniProt P15056)). Entry: Cc1ccc(C(=O)Nc2cccc(-c3ccnc4cc(-c5cccs5)nn34)c2)cc1C(F)(F)F [Example 117]
Result: > 10 µM

Query: Field: IC50 (human B-Raf (Homo sapiens, UniProt P15056)). Entry: CC(C)(C)OC(=O)NC1CCN(c2cc3nccc(-c4cccc(NC(=O)c5cccc(C(F)(F)F)c5)c4)n3n2)C1 (stereo not drawn) [Example 212]
Result: > 10 µM
